Where these numbers come from: ChEMBL document CHEMBL1156251

molecular target: Lipopolysaccharide (LPS); assay: Displacement of dansyl-PMB from LPS by isothermal titration calorimetry

Compound	IC50 [µM]
CCCCCCCC(=O)N[C@@H](CCN)C(=O)N[C@H](C(=O)N[C@@H](CCN)C(=O)N[C@H]1CCNC(=O)[C@H]([C@@H](C)O)NC(=O)[C@H](CCN)NC(=O)[C@H](CCN)NC(=O)[C@H](CC(C)C)NC(=O)C(Cc2c[nH]c3ccccc23)NC(=O)[C@H](CCN)NC1=O)[C@@H](C)O (stereo in doubt)	6
CCC(C)CCC(O)CC(=O)N[C@@H](CCN)C(=O)N[C@H](C(=O)N[C@@H](CCN)C(=O)N[C@H]1CCNC(=O)[C@H]([C@@H](C)O)NC(=O)[C@H](CCN)NC(=O)[C@H](CCN)NC(=O)[C@H](CC(C)C)NC(=O)[C@@H](Cc2ccccc2)NC(=O)[C@H](CCN)NC1=O)[C@@H](C)O (stereo partly drawn) [POLYMYXIN B6]	7

* * *

Overview of reported MIC across a group of molecules:
test system: Escherichia coli; assay: Antimicrobial activity against Escherichia coli; type: functional
Where a SMILES comes first, the peptide text is derived from it. Bridges are numbered along the chain shown (N, C = ends). [ ]: non-standard residue; d: D form. The star is where a group is joined. Heptanoyl(6-Me) = CC(C)CCCCC(=O)*; Dab = NCC[C@H](N)C(=O)O
Metric name: MIC (µg/mL)

Molecule	Test system	Measurement
CC(C)CCCCC(=O)N[C@@H](CCN)C(=O)N[C@H](C(=O)N[C@@H](CCN)C(=O)N[C@H]1CCNC(=O)[C@H]([C@@H](C)O)NC(=O)[C@H](CCN)NC(=O)[C@H](CCN)NC(=O)[C@H](CC(C)C)NC(=O)[C@@H](CC(C)C)NC(=O)[C@H](CCN)NC1=O)[C@@H](C)O [COLISTIN B] ({Heptanoyl(6-Me)}-[Dab]T[Dab][Dab][Dab][dL]L[Dab][Dab]T; lactam 4-C)	Escherichia coli	1.6
CCC(C)CCCCC(=O)N[C@@H](CCN)C(=O)N[C@H](C(=O)N[C@@H](CO)C(=O)N[C@H]1CCNC(=O)[C@H]([C@@H](C)O)NC(=O)[C@H](CCN)NC(=O)[C@H](CCN)NC(=O)[C@H](CC(C)C)NC(=O)[C@@H](CC(C)C)NC(=O)[C@H](CCN)NC1=O)[C@@H](C)O (stereo partly drawn)	Escherichia coli	0.8

* * *

tested on: Escherichia coli; experiment: Antimicrobial activity against Escherichia coli; assay type: functional
Overview of reported MIC across a group of compounds:

Compound	MIC [µg/mL]
CCC(C)CCCCCOC(=O)[C@H](CCCCN)NC(=O)C(NC(=O)[C@H](CCCCN)NC(=O)[C@H](CCCCN)NC(=O)[C@@H](NC(=O)[C@H](CCCCN)NC(=O)[C@@H](CCCCN)NC(=O)[C@H](CC(C)C)NC(=O)[C@@H](CCCCN)NC(=O)[C@@H](N)CC(C)C)[C@@H](C)O)[C@@H](C)O (single isomer, unassigned)	100
CCC(C)CCCCC(=O)N[C@@H](CC/N=C/c1ccc(N(C)C)cc1)C(=O)N[C@H](C(=O)N[C@@H](CCN)C(=O)N[C@H]1CCNC(=O)[C@H]([C@@H](C)O)NC(=O)[C@H](CC/N=C/c2ccc(N(C)C)cc2)NC(=O)[C@H](CC/N=C/c2ccc(N(C)C)cc2)NC(=O)[C@H](CC(C)C)NC(=O)[C@@H](CC(C)C)NC(=O)[C@H](CC/N=C/c2ccc(N(C)C)cc2)NC1=O)[C@@H](C)O (some centres not stated)	12
CCC(C)CCCCC(=O)N[C@@H](CC/N=C/c1ccc(N(C)C)cc1)C(=O)N[C@@H](C(=O)N[C@@H](CC/N=C/c1ccc(N(C)C)cc1)C(=O)N[C@H]1CCNC(=O)[C@@H]([C@@H](C)O)NC(=O)[C@H](CC/N=C/c2ccc(N(C)C)cc2)NC(=O)[C@H](CC/N=C/c2ccc(N(C)C)cc2)NC(=O)[C@H](CC(C)C)NC(=O)[C@@H](Cc2ccccc2)NC(=O)[C@H](CC/N=C\c2ccc(N(C)C)cc2)NC1=O)[C@@H](C)O (some centres not stated)	12
CC(C)C[C@@H]1NC(=O)[C@@H](Cc2ccccc2)NC(=O)[C@H](CCN)NC(=O)[C@@H](NC(=O)[C@H](CCN)NC(=O)[C@H](NC(=O)OCC2c3ccccc3-c3ccccc32)[C@@H](C)O)CCNC(=O)[C@@H]([C@@H](C)O)NC(=O)[C@H](CCN)NC(=O)[C@H](CCN)NC1=O	0.8
CCCCCC(=O)N[C@@H](CCN)C(=O)N[C@@H](C(=O)N[C@@H](CCN)C(=O)N[C@H]1CCNC(=O)[C@@H]([C@@H](C)O)NC(=O)[C@H](CCN)NC(=O)[C@H](CCN)NC(=O)[C@H](CC(C)C)NC(=O)[C@@H](Cc2ccccc2)NC(=O)[C@H](CCN)NC1=O)[C@@H](C)O [HEXANOYL FATTY ACYL POLYMYXIN B]	0.7
